Test: Metabolic stability in Sprague-Dawley rat plasma assessed as half life at 1 uM incubated for 60 min by LC-MS/MS method
Type: ADME, cell-free
Readings of half-life at 1 µM for the listed compounds

Here's what some known entries look like.
CCCCOC(=O)O[C@@H]1CC[C@@]2(C)[C@@H](CC[C@@H]3[C@@H]2CC[C@]2(C)[C@@H](C(C)=O)CC[C@@H]32)C1
6.3 min
CC(=O)[C@H]1CC[C@H]2[C@@H]3CC[C@H]4C[C@H](OC(=O)CCCOC(=O)C(C)C)CC[C@]4(C)[C@H]3CC[C@]12C
1.2 min
CC(=O)[C@H]1CC[C@H]2[C@@H]3CC[C@H]4C[C@H](OC(=O)N(C)CCOC(=O)C(C)C)CC[C@]4(C)[C@H]3CC[C@]12C
1.6 min
CC(=O)OCCCC(=O)O[C@@H]1CC[C@@]2(C)[C@@H](CC[C@@H]3[C@@H]2CC[C@]2(C)[C@@H](C(C)=O)CC[C@@H]32)C1
1.6 min
CC(=O)[C@H]1CC[C@H]2[C@@H]3CC[C@H]4C[C@H](OC(=O)OCc5oc(=O)oc5C)CC[C@]4(C)[C@H]3CC[C@]12C
< 2 min
CCCCCC(=O)O[C@@H]1CC[C@@]2(C)[C@@H](CC[C@@H]3[C@@H]2CC[C@]2(C)[C@@H](C(C)=O)CC[C@@H]32)C1
> 289 min

Turning to the following compound.
Requested read-out: half-life at 1 µM. Entry: CC(=O)[C@H]1CC[C@H]2[C@@H]3CC[C@H]4C[C@H](OC(=O)OCCOC(=O)C(C)C)CC[C@]4(C)[C@H]3CC[C@]12C
< 3 min

###

Test: AUClast in beagle dog at 1 mg/kg, IV administered for 30 mins measured after 24 hrs post dose by LC-MS/MS analysis
Assay type: ADME, organism-based, Canis lupus familiaris
Parameters: time 24.5 hrs, dose 1 mg/kg, route iv
Conditions: in vivo
Measured attribute: AUC(0-t) at 24.5 h (ng·h/mL)
Output spec: scalar in ng·h/mL, unitless text.

CC(=O)[C@H]1CC[C@H]2[C@@H]3CC[C@H]4C[C@H](OC(=O)OCCOC(=O)C(C)C)CC[C@]4(C)[C@H]3CC[C@]12C
238

Requested read-out: AUC(0-t) at 24.5 h. Entry: CC(=O)[C@H]1CC[C@H]2[C@@H]3CC[C@H]4C[C@H](OC(=O)OCc5oc(=O)oc5C)CC[C@]4(C)[C@H]3CC[C@]12C
62.6

###

Assay: Half life in Sprague-Dawley rat at 5 mg/kg, IM administered for 30 mins measured after 24 hrs post dose by LC-MS/MS analysis
Assay type: ADME, organism-based
Conditions: in vivo, time 24.5 hrs
Measured attribute: half-life (h)
Output spec: scalar in h, unitless text.

Requested read-out: half-life. Entry: CC(=O)[C@H]1CC[C@H]2[C@@H]3CC[C@H]4C[C@H](OC(=O)OCCOC(=O)C(C)C)CC[C@]4(C)[C@H]3CC[C@]12C
2.39

Next entry: CCCCCC(=O)O[C@@H]1CC[C@@]2(C)[C@@H](CC[C@@H]3[C@@H]2CC[C@]2(C)[C@@H](C(C)=O)CC[C@@H]32)C1
7.94

###

Readings of half-life at 1 µM for the listed compounds
Assay: Metabolic stability in beagle dog plasma assessed as half life at 1 uM incubated for 60 min by LC-MS/MS method
Assay type: ADME, cell-free, Canis lupus familiaris
Output spec: scalar in h, unitless text.

CC(=O)[C@H]1CC[C@H]2[C@@H]3CC[C@H]4C[C@H](OC(=O)CCCOC(=O)C(C)C)CC[C@]4(C)[C@H]3CC[C@]12C
3.88
CCCCOC(=O)O[C@@H]1CC[C@@]2(C)[C@@H](CC[C@@H]3[C@@H]2CC[C@]2(C)[C@@H](C(C)=O)CC[C@@H]32)C1
2.2
CC(=O)OCCCC(C)C(=O)O[C@@H]1CC[C@@]2(C)[C@@H](CC[C@@H]3[C@@H]2CC[C@]2(C)[C@@H](C(C)=O)CC[C@@H]32)C1 (stereo partly drawn)
3.88
CC(=O)[C@H]1CC[C@H]2[C@@H]3CC[C@H]4C[C@H](OC(=O)OCc5oc(=O)oc5C)CC[C@]4(C)[C@H]3CC[C@]12C
0.5
CC(=O)[C@H]1CC[C@H]2[C@@H]3CC[C@H]4C[C@H](OC(=O)OCCOC(=O)C(C)C)CC[C@]4(C)[C@H]3CC[C@]12C
1.53
CC(=O)OCCCCC(=O)O[C@@H]1CC[C@@]2(C)[C@@H](CC[C@@H]3[C@@H]2CC[C@]2(C)[C@@H](C(C)=O)CC[C@@H]32)C1
1.45
CC(=O)[C@H]1CC[C@H]2[C@@H]3CC[C@H]4C[C@H](OC(=O)N(C)CCOC(=O)C(C)C)CC[C@]4(C)[C@H]3CC[C@]12C
2.3

Requested read-out: half-life at 1 µM. Entry: CC(=O)OCCCC(=O)O[C@@H]1CC[C@@]2(C)[C@@H](CC[C@@H]3[C@@H]2CC[C@]2(C)[C@@H](C(C)=O)CC[C@@H]32)C1
2.3
